Origin of values: paper PMC7400457

assay text: Pharmacokinetic study of omeprazole in mice after i.v., i.p. and p.o. administration (plasma and brain, LC-QTOF-MS)
Type: in vivo, Male ICR mice
condition set: male, ICR, mouse, po, 10 mg/kg, brain
Description: Omeprazole formulation was freshly prepared on the day of experiment. Mice were randomly distributed into three different groups (twelve mice per group; p.o. group, i.v. group and i.p. group) and received 10 mg/kg of omeprazole. […] MultiQuant® Version 2.1.1 (Sciex) was used for the peak integration of omeprazole for quantification. […] Pharmacokinetic parameters were calculated in a non-compartmental analysis using WinNonlin® version 8.0.0 (Certara, Princeton, NJ, USA). […]
assay metric: Cmax
Phrase the answer as number then unit, nothing more needed.

// query Cmax value for entry COc1ccc2[nH]c([S+]([O-])Cc3ncc(C)c(OC)c3C)nc2c1 (stereo not shown)
37.8 ng/mL

* * *

assay text: Pharmacokinetic study of omeprazole in mice after i.v., i.p. and p.o. administration (plasma and brain, LC-QTOF-MS)
Type: in vivo, Male ICR mice
condition set: male, ICR, mouse, ip, 10 mg/kg, plasma
assay metric: half-life (min)
Answers are plain numbers, in min.

// query half-life value for entry COc1ccc2[nH]c([S+]([O-])Cc3ncc(C)c(OC)c3C)nc2c1 (stereo not shown) [Omeprazole]
28.8

* * *

assay text: In vivo metabolite identification (MetID) after concomitant omeprazole/D3-omeprazole administration, mouse plasma and brain
Design: species or system Male ICR mice; key: found / not found / E, i.v. route (brain): found / not found / F, p.o. route (brain): found / not found / A, i.p. route (plasma): found / not found / B, i.v. route (plasma): found / not found / C, p.o. route (plasma): found / not found: O, found; -, not found
condition set: 50 mg/kg omeprazole/D3-omeprazole 1:1, i.p., mouse brain
assay metric: D, i.p. route (brain): found / not found

>  <compound>
COc1ccc2[nH]c(SCC(NC(C)=O)C(=O)O)nc2c1 (stereo not shown) [Metabolite M1]

>  <assay metric>
D, i.p. route (brain): found / not found

>  <obs value>
-

$$$$
>  <compound>
COc1ccc2[nH]c([S+]([O-])Cc3ncc(C)cc3C)nc2c1 (stereo not shown) [Metabolite M11]

>  <assay metric>
D, i.p. route (brain): found / not found

>  <obs value>
O

$$$$
>  <compound>
COc1c(C)cnc(C[S+]([O-])c2nc3cc(O[C@@H]4O[C@H](C(=O)O)[C@@H](O)[C@H](O)[C@H]4O)ccc3[nH]2)c1C (stereo partly shown) [Metabolite M2]

>  <assay metric>
D, i.p. route (brain): found / not found

>  <obs value>
O

$$$$
>  <compound>
COc1c(C)cnc(CSc2nc3cc(O)ccc3[nH]2)c1C [Metabolite M17]

>  <assay metric>
D, i.p. route (brain): found / not found

>  <obs value>
O

$$$$

* * *

assay text: Pharmacokinetic study of omeprazole in mice after i.v., i.p. and p.o. administration (plasma and brain, LC-QTOF-MS)
Type: in vivo, Male ICR mice
condition set: male, ICR, mouse, brain/plasma, po, 10 mg/kg, p.o., read-out: Brain/Plasma Ratio
assay metric: Kp
Give bare numbers.

// query Kp value for entry COc1ccc2[nH]c([S+]([O-])Cc3ncc(C)c(OC)c3C)nc2c1 (stereo not shown)
0.0643

* * *

assay text: Pharmacokinetic study of omeprazole in mice after i.v., i.p. and p.o. administration (plasma and brain, LC-QTOF-MS)
Type: in vivo, Male ICR mice
condition set: male, ICR, mouse, iv, 10 mg/kg, brain
assay metric: half-life (min)
Answers are plain numbers, in min.

// query half-life value for entry COc1ccc2[nH]c([S+]([O-])Cc3ncc(C)c(OC)c3C)nc2c1 (stereo not shown) [Omeprazole]
48.2

* * *

assay text: Pharmacokinetic study of omeprazole in mice after i.v., i.p. and p.o. administration (plasma and brain, LC-QTOF-MS)
Assay type: in vivo, Male ICR mice
condition set: male, ICR, mouse, iv, 10 mg/kg, plasma
assay metric: Cmax (µg/mL)
Answers are plain numbers, in µg/mL.

// query Cmax value for entry COc1ccc2[nH]c([S+]([O-])Cc3ncc(C)c(OC)c3C)nc2c1 (stereo not shown)
67.6

* * *

assay text: Pharmacokinetic study of omeprazole in mice after i.v., i.p. and p.o. administration (plasma and brain, LC-QTOF-MS)
Format: in vivo, Male ICR mice
condition set: male, ICR, mouse, po, 10 mg/kg, plasma
assay metric: half-life (min)
One number for each entry, in min.

// query half-life value for entry COc1ccc2[nH]c([S+]([O-])Cc3ncc(C)c(OC)c3C)nc2c1 (stereo not shown) [Omeprazole]
54.8

* * *

assay text: Pharmacokinetic study of omeprazole in mice after i.v., i.p. and p.o. administration (plasma and brain, LC-QTOF-MS)
Type: in vivo, Male ICR mice
condition set: male, ICR, mouse, brain/plasma, iv, 10 mg/kg, i.v., AUClast, read-out: brain-to-plasma partition coefficient (Kp) = AUCbrain/AUCplasma
Protocol: Omeprazole formulation was freshly prepared on the day of experiment. Mice were randomly distributed into three different groups (twelve mice per group; p.o. group, i.v. group and i.p. group) and received 10 mg/kg of omeprazole. […] MultiQuant® Version 2.1.1 (Sciex) was used for the peak integration of omeprazole for quantification. […] Pharmacokinetic parameters were calculated in a non-compartmental analysis using WinNonlin® version 8.0.0 (Certara, Princeton, NJ, USA). […]
assay metric: Kp
Give bare numbers.

// query Kp value for entry COc1ccc2[nH]c([S+]([O-])Cc3ncc(C)c(OC)c3C)nc2c1 (stereo not shown)
0.15
